Reported pKi against Adenosine receptor A2a (Rattus norvegicus, UniProt P30543), gathered from multiple publications, appears below.
Sequence (P30543 whole entry): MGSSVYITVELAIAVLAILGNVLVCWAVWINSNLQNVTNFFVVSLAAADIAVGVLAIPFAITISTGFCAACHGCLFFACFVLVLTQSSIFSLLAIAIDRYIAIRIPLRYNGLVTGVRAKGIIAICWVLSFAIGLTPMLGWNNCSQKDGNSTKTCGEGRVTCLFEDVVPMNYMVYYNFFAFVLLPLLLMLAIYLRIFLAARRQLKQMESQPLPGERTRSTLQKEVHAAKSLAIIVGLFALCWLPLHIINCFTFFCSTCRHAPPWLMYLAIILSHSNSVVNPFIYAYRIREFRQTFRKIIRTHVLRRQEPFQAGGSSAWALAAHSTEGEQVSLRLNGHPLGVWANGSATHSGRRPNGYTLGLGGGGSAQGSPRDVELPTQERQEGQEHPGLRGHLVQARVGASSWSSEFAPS
Quick note: pKi values are minus log10 of concentrations in mol/L.

Input line: Any idea what pKi came out for Nc1nc(N2CCN(Cc3ccncc3)CC2)nc2nc(-c3ccco3)nn12 on Adenosine receptor A2a (Rattus norvegicus, UniProt P30543)?
Output line: 6.85

Input line: Any idea what pKi came out for NC(=O)c1cnn(-c2nc(N)c3ncn([C@@H]4O[C@H](CO)[C@@H](O)[C@H]4O)c3n2)c1 on Adenosine receptor A2a (Rattus norvegicus, UniProt P30543)?
Output line: 6.46

Input line: Any idea what pKi came out for Cn1c(=O)c2c(nc3n2CCN(c2ccc(F)cc2)C3)n(C)c1=O on Adenosine receptor A2a (Rattus norvegicus, UniProt P30543)?
Output line: 5.67

Input line: Any idea what pKi came out for Cc1cc(C)n(-c2cc(NC(=O)CN3CCC(CN(C)C)CC3)nc(-c3ccc(C)o3)n2)n1 on Adenosine receptor A2a (Rattus norvegicus, UniProt P30543)?
Output line: 7.60

Input line: Any idea what pKi came out for Nc1ncnc2c1ncn2[C@@H]1O[C@H](C(=S)NC2CC2)[C@@H](O)[C@H]1O on Adenosine receptor A2a (Rattus norvegicus, UniProt P30543)?
Output line: 6.89

Input line: Any idea what pKi came out for Cn1c(=O)c2c(nc3n2CCCN3CCOc2ccc(Cl)cc2)n(C)c1=O on Adenosine receptor A2a (Rattus norvegicus, UniProt P30543)?
Output line: 4.60

Input line: Any idea what pKi came out for O=[N+]([O-])c1nc(NCc2cccc(I)c2)c2ncn([C@@H]3O[C@H](CO)[C@@H](O)[C@H]3O)c2n1 on Adenosine receptor A2a (Rattus norvegicus, UniProt P30543)?
Output line: 5.84

Input line: Any idea what pKi came out for COc1ccc(/C=N/Nc2nc(N)c3ncn([C@@H]4O[C@H](CO)[C@@H](O)[C@H]4O)c3n2)cc1 on Adenosine receptor A2a (Rattus norvegicus, UniProt P30543)?
Output line: 7.92
